Test system: Toxoplasma gondii RH (in HFF)
Experiment: parasite growth relative to the screen mean (all compounds = 100%); higher = less inhibition of parasite growth
Details: 5 µM; 72 h; oxygen 21 %
Structures can show the parent of a compound that is named as a salt.
Entries and their parasite growth values follow.
Field note: include the unit after the figure.

Query: GET /values?readout=parasite growth&system=Toxoplasma gondii RH (in HFF)&item= N=C(CC(O)COc1ccccc1-c1ccccc1)N1CCCCC1 (stereo not given)
Response: 95.8%

Query: GET /values?readout=parasite growth&system=Toxoplasma gondii RH (in HFF)&item= O=C1NC(=O)c2cc(Nc3ccc(F)cc3)c(Nc3ccc(F)cc3)cc21
Response: 171%

Query: GET /values?readout=parasite growth&system=Toxoplasma gondii RH (in HFF)&item= FC(F)(F)c1cccc(-c2noc(-c3cc(-c4ccccc4)c(C(F)(F)F)s3)n2)c1
Response: 109%

Query: GET /values?readout=parasite growth&system=Toxoplasma gondii RH (in HFF)&item= CCN1CCC[C@H]1CNC(=O)c1cc(S(N)(=O)=O)ccc1OC [(S)-(-)-Sulpiride]
Response: 93.2%

Query: GET /values?readout=parasite growth&system=Toxoplasma gondii RH (in HFF)&item= COc1ccccc1N1CCN(CCN2C(=O)CC3(CCCC3)CC2=O)CC1 [BMY 7378 dihydrochloride]
Response: 81.1%

Query: GET /values?readout=parasite growth&system=Toxoplasma gondii RH (in HFF)&item= N=C(N)S/C=C\C(=O)O [ZAPA sulphate]
Response: 106%

Query: GET /values?readout=parasite growth&system=Toxoplasma gondii RH (in HFF)&item= Cc1ccc(O)c(N=Nc2ccccc2)n1
Response: 92.5%

Query: GET /values?readout=parasite growth&system=Toxoplasma gondii RH (in HFF)&item= O=C(O)CC/C=C\C[C@H]1CO[C@@H](c2ccccc2Cl)O[C@H]1c1ccccc1O
Response: 79%

Query: GET /values?readout=parasite growth&system=Toxoplasma gondii RH (in HFF)&item= O=C(O)Cc1cccc(OCCCN(Cc2cccc(C(F)(F)F)c2Cl)CC(c2ccccc2)c2ccccc2)c1 [GW 3965 hydrochloride]
Response: 105%

Query: GET /values?readout=parasite growth&system=Toxoplasma gondii RH (in HFF)&item= CCOC(=O)[C@]12CC1/C(=N\O)c1ccccc1O2 (stereo not given in full)
Response: 83%
